target: 5-HT2A (Homo sapiens, UniProt P28223); construct: purchased NIMH Psychoactive Drug Screening Program (PDSP); experiment: PDSP primary binding 5-HT2A; settings: 1.5 h; primary binding, 10,000 nM; last figure of the line = mean of the 4 before it; read-out: 5-HT2A, PDSP raw data, mean
Sequence (P28223 whole entry): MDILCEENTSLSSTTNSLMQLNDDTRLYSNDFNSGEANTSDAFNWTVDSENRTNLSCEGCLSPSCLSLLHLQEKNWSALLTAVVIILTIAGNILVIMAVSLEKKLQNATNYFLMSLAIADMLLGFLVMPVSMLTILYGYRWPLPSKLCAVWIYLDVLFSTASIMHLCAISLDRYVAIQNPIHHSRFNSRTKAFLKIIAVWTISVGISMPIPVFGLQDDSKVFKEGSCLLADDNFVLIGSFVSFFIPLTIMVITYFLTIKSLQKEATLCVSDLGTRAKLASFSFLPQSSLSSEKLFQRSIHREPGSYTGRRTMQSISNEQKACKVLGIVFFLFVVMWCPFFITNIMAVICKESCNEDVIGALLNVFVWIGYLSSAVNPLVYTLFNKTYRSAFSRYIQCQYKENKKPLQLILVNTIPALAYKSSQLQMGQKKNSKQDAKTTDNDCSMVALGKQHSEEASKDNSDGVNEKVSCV
So I've got a bunch of compounds here, and I need their inhibition at 10 µM values.
# value in %; strip the unit string

Record C#Cc1ccc2c(c1)C(c1ccccc1F)=N[C@H](C)c1c(C(=S)N(C)C)ncn1-2 [Compound 33] . Reported inhibition at 10 µM: 10.7

Short answer for CCc1noc(-c2ncn3c2[C@@H](C)N=C(c2ccccc2F)c2cc(Cl)ccc2-3)n1 [Compound 36] : inhibition at 10 µM was 11.1

Lookup result for C#Cc1ccc2c(c1)C(c1ccccc1Cl)=N[C@H](C)c1c(C(=O)NC)ncn1-2 [Compound 21] ; measured inhibition at 10 µM: -7.9

// CC(C)c1noc(-c2ncn3c2[C@@H](C)N=C(c2ccccc2F)c2cc(Cl)ccc2-3)n1 [Compound 37] : inhibition at 10 µM value = 14.1

The compound listed as CCc1noc(-c2ncn3c2[C@@H](C)N=C(c2ccccc2F)c2cc(-c4ccccc4)ccc2-3)n1 [Compound 35] shows inhibition at 10 µM equal to 32.3

The measured inhibition at 10 µM associated with C#Cc1ccc2c(c1)C(c1ccccn1)=N[C@@H](C)c1c(C(=O)N(C)C)ncn1-2 [Compound 31] reads -13.1

// sample C#Cc1ccc2c(c1)C(c1ccccn1)=N[C@@H](C)c1c(C(=O)NC)ncn1-2 [Compound 23] , its inhibition at 10 µM was -0.6

The compound CCc1noc(-c2ncn3c2CN=C(c2ccccc2F)c2cc(C4CC4)ccc2-3)n1 [Compound 44] showed inhibition at 10 µM equal to 21.2

The compound C[C@H]1N=C(c2ccccc2F)c2cc(-c3ccccc3)ccc2-n2cnc(C(=O)N(C)C)c21 [Compound 5] showed inhibition at 10 µM equal to 10.7

inhibition at 10 µM reading for C#Cc1ccc2c(c1)C(c1ccccc1Cl)=N[C@H](C)c1c(C(=O)N(C)CC)ncn1-2 [Compound 29] : -3.89

inhibition at 10 µM reading for CCc1noc(-c2ncn3c2[C@@H](C)N=C(c2ccccc2F)c2cc(C4CC4)ccc2-3)n1 [Compound 46] : 23.6

C[C@H]1N=C(c2ccccc2F)c2cc(Cl)ccc2-n2cnc(-c3nc(C4CC4)no3)c21 [Compound 38] yielded inhibition at 10 µM of 11.6

====

Please respond with reported inhibition at 10 µM for every item in the list.
Target: D2 (Homo sapiens, UniProt P14416)
Construct: purchased NIMH Psychoactive Drug Screening Program (PDSP)
Sequence (P14416 whole entry): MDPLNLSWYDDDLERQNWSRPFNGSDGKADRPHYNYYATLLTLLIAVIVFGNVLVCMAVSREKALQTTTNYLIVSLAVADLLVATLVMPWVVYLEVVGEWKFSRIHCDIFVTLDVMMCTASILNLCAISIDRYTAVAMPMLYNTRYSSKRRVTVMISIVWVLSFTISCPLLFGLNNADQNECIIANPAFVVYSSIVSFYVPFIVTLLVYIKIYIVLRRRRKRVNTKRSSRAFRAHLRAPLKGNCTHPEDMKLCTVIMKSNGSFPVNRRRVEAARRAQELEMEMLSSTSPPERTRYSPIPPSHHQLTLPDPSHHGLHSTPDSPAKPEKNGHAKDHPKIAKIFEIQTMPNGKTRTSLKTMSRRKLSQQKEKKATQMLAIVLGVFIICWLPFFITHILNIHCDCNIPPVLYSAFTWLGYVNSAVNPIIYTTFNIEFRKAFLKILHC
Experiment: PDSP primary binding D2
Conditions: 1.5 h; primary binding, 10,000 nM; last figure of the line = mean of the 4 before it; read-out: D2, PDSP raw data, mean
Procedure: To determine if any off-target receptor-binding effects are present, all the novel ligands were sent to the National Institute of Mental Health (NIMH), Psychoactive Drug Screening Program (PDSP). […] The hERG-binding was also determined. […] The binding of a ligand to a receptor, ion channel, or transporter was determined in the […] of 10 µM of the appropriate reference compound. […] Radioactivity was then counted on a Microbeta counter. […]
Just the number in %, nothing appended.

Quick note, inhibition at 10 µM for "C#Cc1ccc2c(c1)C(c1ccccc1F)=N[C@H](C)c1c(C(=S)N(C)C)ncn1-2" landed at 0.27

Field inhibition at 10 µM (entry "CC(C)c1noc(-c2ncn3c2[C@@H](C)N=C(c2ccccc2F)c2cc(Cl)ccc2-3)n1" ) reads 18.2

inhibition at 10 µM for "C#Cc1ccc2c(c1)C(c1ccccn1)=N[C@@H](C)c1c(C(=O)N(C)C)ncn1-2" is 3.47

Consider "C[C@H]1N=C(c2ccccc2F)c2cc(Cl)ccc2-n2cnc(-c3nc(C4CC4)no3)c21" . Its measured inhibition at 10 µM is 21.8
